# MEASURED ON: Cloned human receptors D1 (C-6)
# Construct: C-6 glioma cells expressing the rhesus macaque D1 A receptor, (C-6-m D1 A)
# MEASUREMENT DESCRIPTION: Binding affinity, cloned human D1 receptor (C-6)
# CONDITIONS USED: read-out: K0.5, Cloned human receptors D1 (C-6); C-6 cells
Structures can show the parent of a compound that is named as a salt.

COMPOUND	UNITS TEXT	Ki
Cc1ccc2c(c1)[C@@H]1c3cc(O)c(O)cc3CC[C@H]1NC2 (racemic) [Compound 1, hydrochloride]	nM	8

* * *

# MEASURED ON: Cloned human receptors D3 (CHO) (Homo sapiens)
# Construct: expressed in transfected cells; host or cells: CHO cells
# Sequence (P35462 whole entry): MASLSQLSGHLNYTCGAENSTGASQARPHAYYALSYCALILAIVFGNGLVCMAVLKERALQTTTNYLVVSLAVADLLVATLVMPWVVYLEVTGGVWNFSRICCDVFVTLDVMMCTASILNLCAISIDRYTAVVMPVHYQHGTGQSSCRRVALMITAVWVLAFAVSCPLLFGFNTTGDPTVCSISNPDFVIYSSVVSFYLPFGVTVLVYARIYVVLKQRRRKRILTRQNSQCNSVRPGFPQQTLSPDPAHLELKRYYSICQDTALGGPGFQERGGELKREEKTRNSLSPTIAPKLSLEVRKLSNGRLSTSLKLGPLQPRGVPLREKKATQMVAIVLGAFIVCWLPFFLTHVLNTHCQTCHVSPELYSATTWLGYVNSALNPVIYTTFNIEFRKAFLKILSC
# MEASUREMENT DESCRIPTION: Binding affinity, cloned human D3 receptor (CHO)
# CONDITIONS USED: CHO cells; read-out: K0.5, Cloned human receptors D3 (CHO)

MOLECULE	UNITS TEXT	Ki
Oc1cc2c(cc1O)[C@@H]1c3ccccc3CN[C@H]1CC2 (relative stereo) [dihydrexidine, reference compound]	nM	15

* * *

# MEASURED ON: Cloned human receptors D4 (CHO) (Homo sapiens, UniProt P21917)
# Sequence (P21917 whole entry): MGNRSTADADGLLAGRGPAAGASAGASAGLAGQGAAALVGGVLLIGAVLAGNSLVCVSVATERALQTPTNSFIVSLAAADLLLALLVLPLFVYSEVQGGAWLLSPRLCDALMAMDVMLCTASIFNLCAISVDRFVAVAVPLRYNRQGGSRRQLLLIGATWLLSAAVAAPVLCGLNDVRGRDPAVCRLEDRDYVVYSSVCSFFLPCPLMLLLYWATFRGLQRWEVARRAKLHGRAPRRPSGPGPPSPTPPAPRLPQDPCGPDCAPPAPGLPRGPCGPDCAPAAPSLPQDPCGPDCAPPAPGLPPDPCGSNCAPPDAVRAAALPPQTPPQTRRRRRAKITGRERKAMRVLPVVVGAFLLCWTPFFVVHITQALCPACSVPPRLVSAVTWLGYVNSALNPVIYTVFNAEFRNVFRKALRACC
pKi: −log10 of the molar value. Where a name gives a salt, the structure may show the parent alone.

COMPOUND	pKi
Cc1ccc2c(c1)[C@@H]1c3cc(O)c(O)cc3CC[C@H]1NC2 (racemic) [Compound 1, hydrochloride]	6.49
